Recorded values, source PubChem BioAssay AID1259249.

- assay: blockers of Clostridium difficile growth – HTS, primary screen (AID 1259249);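 further: 0% = DMSO wells and -100% = levofloxacin 16 µg/mL wells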
- conditionLabel: Clostridium difficile clinical isolate growth, OD600, 24 h; active compounds read low; screened at 16 µg/mL (by protocol)
The whole screen tested about 86,000 compounds, of which about 220 (0.26%) were called active. The sample holds actives, similar compounds and a random draw of the others, so the mix is not that of the screen.
Measured growth activity, negative = inhibition accompanies every entry in the list below.
State the answer as a number, implicitly in %.

// worked examples, growth activity, negative = inhibition included
COc1ccc2c3c(n(C)c2c1)[C@H](CO)N(C(=O)Cc1ccccc1)CC31CCN(C)CC1: -5.17
COc1ccc(-c2ccc3c(c2)[C@@H]2[C@@H](CCN2C(=O)NC2CCCC2)[C@@H](CO)N3C)cc1: -8.11
CCC(CO)Oc1cc(NC(=O)c2ccc(Cl)cc2)c2ncn(C(C)C)c2c1 (centres undefined): -0.177

Now for another entry.
Task: Requested read-out: growth activity, negative = inhibition. Entry: "COc1ccc(S(=O)(=O)N2CC[C@@H]3[C@H](CO)Nc4ccc(C#Cc5cccc(OC)c5)cc4[C@@H]32)cc1"
Output: 47.9
